Study system: T1, full length recombinant human 2N4R tau (human, UniProt P10636 1-758)
T1 construct: bought from rPeptide; pHrodo Red maleimide-labelled where it stands in uptake assays; also called tau1-441; full length tau
T1 sequence (P10636 other isoform, or with tags, fused parts or gaps limits assumed): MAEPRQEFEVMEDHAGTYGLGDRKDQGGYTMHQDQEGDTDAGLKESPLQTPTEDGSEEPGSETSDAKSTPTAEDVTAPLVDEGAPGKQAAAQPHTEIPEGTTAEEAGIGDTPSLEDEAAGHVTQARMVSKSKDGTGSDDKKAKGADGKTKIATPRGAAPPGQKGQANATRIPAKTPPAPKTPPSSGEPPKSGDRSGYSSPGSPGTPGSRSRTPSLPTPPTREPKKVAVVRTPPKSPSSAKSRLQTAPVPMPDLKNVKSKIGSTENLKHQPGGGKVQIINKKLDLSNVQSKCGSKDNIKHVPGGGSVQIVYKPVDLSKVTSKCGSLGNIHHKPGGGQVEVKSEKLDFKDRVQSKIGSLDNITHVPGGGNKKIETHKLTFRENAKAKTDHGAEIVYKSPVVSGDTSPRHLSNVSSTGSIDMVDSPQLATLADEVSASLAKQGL
Test description: SPR SCK, IgG on Protein A, tau in flow
Measured attribute: Fold change (KD, to pVH/pVL)

For #44_VH4_H14/L2 (antibody, V domains shown, also called Clone VH4_H14/L2) VH: QVQLQESGPGLVKPSETLSLTCTVSGIDLSSYAMAWVRQAPGKGLEWIGAIDSAGSTFYASWVKGRSTISKDTSKTTVDLQMTSLTAEDTATYFCARDSGAFDPWGQGTLVTVSS VL: DIQMTQSPSSLSASVGDRVTITCQASQSVYDNYLAWYQQKPGQPPKLLIHAASNLASGVPSRFSGSGSGTEFTLTISSLQPDDFATYYCLGEFSCQDTDCNVFGGGTKVEIKR the binder record lists Fold change (KD, to pVH/pVL) as 0.52

For #44_VH4VK4_H18/pVL (antibody, V domains shown, also called Clone VH4_H18; #44_VH4_H18) VH: QVQLQESGPGLVKPSETLSLTCTVSGIDLSSYAMAWVRQAPGKGLEWIGAIDAGGNTFYASWVKGRFTISKDTSKTTVDLQMTSLTAEDTATYFCARDSGAFDPWGQGTLVTVSS VL: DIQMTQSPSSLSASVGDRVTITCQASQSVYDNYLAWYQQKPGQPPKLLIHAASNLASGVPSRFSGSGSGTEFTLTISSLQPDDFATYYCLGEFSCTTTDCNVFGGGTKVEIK the binder record lists Fold change (KD, to pVH/pVL) as 0.19

For #44_VH4VK4 pVH/L2 (antibody, V domains shown, also called Clone VK4_L2; #44_VK4_L2) VH: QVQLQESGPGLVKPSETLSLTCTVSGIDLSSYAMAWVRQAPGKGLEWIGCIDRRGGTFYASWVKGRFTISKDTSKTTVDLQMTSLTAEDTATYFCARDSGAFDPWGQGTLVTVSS VL: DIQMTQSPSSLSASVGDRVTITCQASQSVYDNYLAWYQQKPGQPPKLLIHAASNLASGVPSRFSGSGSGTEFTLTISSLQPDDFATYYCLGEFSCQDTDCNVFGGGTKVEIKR the binder record lists Fold change (KD, to pVH/pVL) as 0.89

For #44_VH4VK4_H13/pVL (antibody, V domains shown, also called Clone VH4_H13; #44_VH4_H13) VH: QVQLQESGPGLVKPSETLSLTCTVSGIDLSSYAMAWVRQAPGKGLEWIGAIDSAGNTFYASWVKGRFTISKDTSKTTVDLQMTSLTAEDTATYFCARDSGAFDPWGQGTLVTVSS VL: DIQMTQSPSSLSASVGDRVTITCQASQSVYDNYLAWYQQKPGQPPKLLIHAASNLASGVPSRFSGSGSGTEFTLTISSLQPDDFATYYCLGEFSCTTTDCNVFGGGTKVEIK the binder record lists Fold change (KD, to pVH/pVL) as 0.38

For #44_VH4VK4_H17/pVL (antibody, V domains shown, also called Clone VH4_H17; #44_VH4_H17) VH: QVQLQESGPGLVKPSETLSLTCTVSGIDLSSYAMAWVRQAPGKGLEWIGAIDRVGNTFYASWVKGRFTISKDTSKTTVDLQMTSLTAEDTATYFCARDSGAFDPWGQGTLVTVSS VL: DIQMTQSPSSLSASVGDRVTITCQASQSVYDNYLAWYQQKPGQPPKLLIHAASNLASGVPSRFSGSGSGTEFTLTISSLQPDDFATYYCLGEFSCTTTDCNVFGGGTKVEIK the binder record lists Fold change (KD, to pVH/pVL) as 1.03
